target: Adenosine receptor A1 (Homo sapiens, UniProt P30542); test: Antagonist activity against adenosine A1 receptor; type: functional; set-up: concentration or dose not given beside the values
Sequence (P30542 whole entry): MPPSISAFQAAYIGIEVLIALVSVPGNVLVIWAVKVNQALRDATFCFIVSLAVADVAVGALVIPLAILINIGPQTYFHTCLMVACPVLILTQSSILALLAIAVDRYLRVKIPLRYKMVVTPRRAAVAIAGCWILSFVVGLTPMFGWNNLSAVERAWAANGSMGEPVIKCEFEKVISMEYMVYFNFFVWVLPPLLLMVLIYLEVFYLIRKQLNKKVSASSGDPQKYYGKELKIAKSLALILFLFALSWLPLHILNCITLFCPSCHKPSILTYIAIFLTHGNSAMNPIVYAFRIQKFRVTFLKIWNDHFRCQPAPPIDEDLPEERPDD
observable: Inhibition (%)
Numbers only, in %.

> print(dat)
                            chemical.string                              study.system  observable  numeric.readout
1  COc1ccc(-c2ccc3c(c2)Cc2sc(N)nc2-3)c(OC)c1OC  Adenosine receptor A1 (Homo sapiens, UniProt P30542)  Inhibition               18
2     COc1ccc(-c2ccc3c(c2)Cc2sc(N)nc2-3)cc1  Adenosine receptor A1 (Homo sapiens, UniProt P30542)  Inhibition             13.3
3        Cc1ccccc1-c1ccc2c(c1)Cc1sc(N)nc1-2  Adenosine receptor A1 (Homo sapiens, UniProt P30542)  Inhibition             34.4
4  Nc1nc2c(s1)Cc1cc(-c3ccc4c(c3)OCO4)ccc1-2  Adenosine receptor A1 (Homo sapiens, UniProt P30542)  Inhibition             11.6

For every item in the list below, what is its measured Inhibition?
1. Nc1nc2c(s1)Cc1cc(-c3cccc(O)c3)ccc1-2
2. Cc1ccc(-c2ccc3c(c2)Cc2sc(N)nc2-3)cc1C
3. COc1ccc(-c2ccc3c(c2)Cc2sc(N)nc2-3)cc1OC
4. CN(C)c1ccc(-c2ccc3c(c2)Cc2sc(N)nc2-3)cc1

1: 36.7; 2: 30.1; 3: 19.2; 4: 12.5

* * *

biological target: Adenosine receptor A2a (Homo sapiens) (UniProt P29274); assay: In vitro allosteric enhancer (AE) activity for adenosine A2A receptor at 50 uM
Sequence (P29274 whole entry): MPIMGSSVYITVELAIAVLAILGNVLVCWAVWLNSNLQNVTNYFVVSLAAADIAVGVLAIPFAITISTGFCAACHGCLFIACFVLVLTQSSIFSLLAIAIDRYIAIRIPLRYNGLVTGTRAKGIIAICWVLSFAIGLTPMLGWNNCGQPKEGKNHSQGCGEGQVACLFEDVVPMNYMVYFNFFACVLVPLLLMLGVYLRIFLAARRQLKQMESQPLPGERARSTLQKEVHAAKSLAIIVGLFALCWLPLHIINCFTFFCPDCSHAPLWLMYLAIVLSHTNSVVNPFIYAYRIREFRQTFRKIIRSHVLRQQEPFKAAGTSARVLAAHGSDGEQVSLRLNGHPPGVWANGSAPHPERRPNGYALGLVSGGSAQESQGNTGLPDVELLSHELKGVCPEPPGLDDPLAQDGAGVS
observable: Alloste ic enhan er (AE) (%)
Give bare numbers, in %.

> print(dat)
                            chemical.string                              study.system                observable  uom  numeric.readout
1  COc1ccc(-c2ccc3c(c2)Cc2sc(N)nc2-3)c(OC)c1OC  Adenosine receptor A2a (Homo sapiens) (UniProt P29274)  Alloste ic enhan er (AE)    %              0.3
2      Nc1nc2c(s1)Cc1cc(-c3ccc(O)cc3)ccc1-2  Adenosine receptor A2a (Homo sapiens) (UniProt P29274)  Alloste ic enhan er (AE)    %                0
3     Nc1nc2c(s1)Cc1cc(-c3cccc(Cl)c3)ccc1-2  Adenosine receptor A2a (Homo sapiens) (UniProt P29274)  Alloste ic enhan er (AE)    %                0

Hello, I would appreciate it if you could give Alloste ic enhan er (AE) for each entry below.
1. Nc1nc2c(s1)Cc1cc(-c3cccc(C(F)(F)F)c3)ccc1-2
2. COc1ccc2cc(-c3ccc4c(c3)Cc3sc(N)nc3-4)ccc2c1
3. COc1ccc(-c2ccc3c(c2)Cc2sc(N)nc2-3)c(OC)c1
4. Nc1nc2c(s1)Cc1cc(-c3cccc4ccccc34)ccc1-2
5. Nc1nc2c(s1)Cc1cc(-c3ccccc3F)ccc1-2
6. COc1ccccc1-c1ccc2c(c1)Cc1sc(N)nc1-2
7. CN(C)c1ccc(-c2ccc3c(c2)Cc2sc(N)nc2-3)cc1

0
0
0
0
0
0
3.4

List Alloste ic enhan er (AE) for every entry below, keeping the order given.
1. Nc1nc2c(s1)Cc1cc(-c3cccc(F)c3)ccc1-2
2. Nc1nc2c(s1)Cc1cc(-c3ccccc3Cl)ccc1-2

1: 0; 2: 0
